test: soluble on expression in E. coli; label from the status in PepcDB or PDB records
attributeMeasured: soluble on expression in E. coli

Task: For `MQTKLSTWTPLNHQLSNAHVFEERRNLLGKWFEKWTDSQRKQVLQDFFSRCSAGQLKHLRQTLSSWVPEETLDFTTVLPRVISLYIFSYLDPRSLCRCAQVSWHWKNLAELDQLWMPKCLKLGWCITFTPTPFEQGVWKRQYIETVQELHISRPKVPVKEEFIVPDVKVIGSETEGSLPLTGHRDLLGLQGRSKNGNDLGKSAKGLPPWRDSDRHPTDTIRFNYLDNLHPGEHARKALLKTRQEDTIKAPSHSTYKLRKAKSLMFLSLDLSTAGKPSHNRPKWAARNLEALPADKDSIKRISQTSQWNAGIRPGPVRPPVPRLSKEGFRASQRSHRSPPTVTLFEGQP` , what is its reported soluble on expression in E. coli?
Result: soluble

Task: Note, next up: `GSLYKMSSINADFAFNLYRRFTVETPDKNIFFSPVSISAALVMLSFGACCSTQTEIVETLGFNLTDTPMVEIQHGFQHLICSLNFPKKELELQIGNALFIGKHLKPLAKFLNDVKTLYETEVFSTDFSNISAAKQEINSHVEMQTKGKVVGLIQDLKPNTIMVLVNYIHFKAQWANPFDPSKTEDSSSFLIDKTTTVQVPMMHQMEQYYHLVDMELNCTVLQMDYSKNALALFVLPKEGQMESVEAAMSSKTLKKWNRLLQKGWVDLFVPKFSISATYDLGATLLKMGIQHAYSENADFSGLTEDNGLKLSNAAHKAVLHIGEKGTEAAAVPEVELSDQPENTFLHPIIQIDRSFMLLILERSTRSILFLGKVVNPTEA`
Result: soluble

###

test: soluble on expression in E. coli; label from the status in PepcDB or PDB records
attributeMeasured: soluble on expression in E. coli

Below, each entry is followed by its recorded soluble on expression in E. coli result.
Task: For `MAHHHHHHMTDTTKGALKRSNTLFLSDAEQFVFDFGGSAGGRAVSPGSSHGSGGQPGEGDGEKGIEETDLANGRTGVVTPFSERERTAPVAPLDAEEVQRYFDKALKGGRRILLENVPLDEAIEKFQLGLRRYEEWLCNQANSRNRGDSSKSRGDPLNEGYRGKPGDVARDAKDRKRPRL` , what is its reported soluble on expression in E. coli?
Result: not soluble

Task: Note, next up: `MGSDKIHHHHHHMVTYAGKLVLAPMVRAGELPTRLMALAHGADLVWSPEIIDKKLIQCVRKENTALQTVDYVVPSKVQTRPETLVFRTYPKLESSKLIFQIGSASPALATQAALKVINDVSGIDINAGCPKHFSIHSGMGSALLRTPDTLCLILKELVKNVGNPHSKPISVKIRLLDTKQDTLQLVKRLCATGITNLTVHCRKTEMRNREQPITDYIAEIYEICQANNVSLIVNGAIRDRSHFHDLQANHWKNTNIGGMIAECAERDPTVFDHTSKPSEDGPSWVVACREFIQWATKFDNHIGNTKYMLSRIVPGKSVFFQYFARCKSPEEVSFVLKQLNDDGSAQTDPSEYLENCRAQEKALKNANAIAKQKRKQTDHIGSDTKKQKVVPLPTDI`
Result: not soluble

Task: Note, next up: `GSYHADPSLVSFLTGLGCPNCIEYFTSQGLQSIYHLQNLTIEDLGALKIPEQYRMTIWRGLQDLKQGHDYSTAQQLLRSS`
Result: soluble

Task: Note, next up: `SSRKSGIGHEASLKRKAEEKLESYRKKIHMKNQAEEKAAEQFRMRLKNKQDEMKLEGDLRRSQRACQQLDVQKNIQVPREAWYWLRLEEETEEDEEEKEQDEDEYKSEDLSVLEKLQILTSYLREEHLYCIWCGTAYEDKEDLSSNCPGPTSADHD`
Result: soluble

Task: Note, next up: `MNILLAGGSGLIGQELVRGMGEEHHYTVLGRDKDAIQKIFTTKASSLSWDELNTQDASRFDAVINLCGVNIAISRWTPKIKEEIISSRVQTTENLLHWILQQNAKPRFYCANAVGIYGLQENGDATDLTEDTAINWEHPKDYLSEVGIRWQQALQKAEEAGLPVTSTRFGVVLKKGKGFLGKLYPSFICGLGSTIGDGRQYLSWIDSEDLVNAYRFLLNHPEITGPVNVTSPNPCMQREFAKAFAKSLHRPLLLWTPAFIIHLLFGEMGDCLINHGQKVKPKRLLEAGFEFKWPDIEKALKHQYSAILEHHHHHH`
Result: soluble

Task: Note, next up: `FINNPNRHFANNYHFAKELALELKKQDVLELATAPSLQKRLRFYGIKNSNKFYLKALKQADKHDMDKKIVKVKLGKYEKVYQILNYD`
Result: not soluble

Task: Note, next up: `GSHMRSEFASGNTYALYVRDTLQPGMRVRMLDDYEEISAGDEGEFRQSNNGVPPVQVFWESTGRTYWVHWHMLEILGFEEDIEDMVEADEYQGAVASRVLGRALP`
Result: soluble

Task: Note, next up: `MEKPTRLALLKEIAEFLNEETEIYSMMQGALRLLINGSDFSTGWIFYIDEEGHHDLVSSVDLPEALSKNHCYYLTNGSCWCVQAYQNHKLTKASNIINCSRINLANHAYDKETNHITHHATVPLQSGSERFGLLNVASPNKEHYSEEDLELLESVAFQIGSAIKRIQLTNKEKENAKINERNRLARDLHDSVNQMLFSLKLTAHAAKGITTDEQAQRAFKTIEETSQNAVNEMRALIWQLKPVGLEQGLIHALHYYSKMLGLDLKVTINGLIDLSNDIEENVYRIIQEAMNNVIKHAKTNKVYLDLSQNVDYLEVDIRDNGQGFDTQSINTFLFNGLKNIKQRTQYLNGKVTIESKINQGTRIYIKIPLKLKEHPYA`
Result: not soluble

Please look at the items below and tell me soluble on expression in E. coli for each one, in order.
1. MLIDMILAFSVAPTETPNNKAEMADVVAEAIRVVRESGLPNETNAMFTLIEGEWDEVMAVVKKATDAVLAVSPRASLVIKADIRPGYTGQLQQKVASVERVLAGDSES
2. MDYLTTNKIAWDARTRVHLTSDFYDVEGFLSGKISLTEIELNELAVAGKSLLHLQCHFGLDTLSWARMGAKVTGVDLSEVAIAEACKLAQQTQLSAEFICSDVYSVVGKVEPQDIVFTSYGAIVWLPDLTLWAQTIAACLKPGGQFYMAEFHPAQQLFDGYSYFNRGEPDIEQEGTYTENASDDQQTLMCWSHSLSEVINALLQAGLELVFFHEFAFSPYNCFEGLEAQADGRYVLIHQGQQVPLVYSISARKPVLEHHHHHH
3. MGSDKIHHHHHHVNGLPLVELSGDAYTQGWQHGRALREAIAANLRIYMTRFERELRIPPDEVWRRALRYAAVIAEQNQDYAAGMRGIAEGAGVDLAAIAALNVRYELFYQFFREYERGTGKPDGCTAFALLPSETDNGHLLVGENWDWIQGVRGAILRTIAPDGLRTLAFTEAGIFGGKIGLNAAGLALLINGLSSTGDDWASLRRPFHVRCYEILQARSLTEAQAVITSEERAGSANFLLAQVPDRVVNIEAAPAALAISGCTNGCLVHANHFTDPAALGIVERQIERYPHSYWRQERLRSLLASRPQSLAQVQAALRDHEQFPYSVCFHIDPADPPDEYYETVASVIMDVTAGVLYATDGPPCEHAYVRYELEVAR

Result:
not soluble
soluble
not soluble

Task: For `MMELETGQCTIMELKKENVKELAQVFKTVAFKDTGTWHASEAGMKITVDDGSYQLASVFINPAFFSSFKVREEIVSMKISIKSISEFLSISENSSSSVKVSYPGMFQPVKMLVEDADGWVARGNFTTTLADQELDFEFDDAGVLATYLLKTQVLKEIIKDFDDTSRTVRIQFTKNSLCFTTFGDVGETTVSIPSRSLQMESVKCLEEVEFSYLLSLIQRMTTAFILATKLILRVDERGVLSCQFSIDHGEGNASYIEFLTVPADEEE` , what is its reported soluble on expression in E. coli?
Result: not soluble

Attribution: the DeepSol protein solubility set
